Hi, quick share: literature IC50 data for Glycogen synthase kinase-3 beta (Homo sapiens, UniProt P49841), several sources combined.

# inputSmiles, testedSystem, quantity, reported
measured = [
    ("O=C1NCCCc2cc(ccn2)-c2ncnc(n2)Nc2cccc(c2)CN2C[C@H](O)C[C@@H]12", "Glycogen synthase kinase-3 beta (Homo sapiens, UniProt P49841)", "IC50", "10 to 100 nM"),
    ("Oc1[nH]c2ccc(Br)nc2c1-c1ccc(CN2CCOCC2)cn1", "Glycogen synthase kinase-3 beta (Homo sapiens, UniProt P49841)", "IC50", "< 100 nM"),
    ("CCCCOC(=O)c1cnc(NCCNc2ccc([N+](=O)[O-])cn2)nc1-c1ccc(C#N)cc1", "Glycogen synthase kinase-3 beta (Homo sapiens, UniProt P49841)", "IC50", "≤ 1000 nM"),
]

Now look at this entry.
I looked up `O=C(Nc1ccccn1)Nc1ccnc2cc(C(F)(F)F)ccc12` and its IC50 for Glycogen synthase kinase-3 beta (Homo sapiens, UniProt P49841) was 100 to 10000 nM
